Observed IC50 for Tyrosine-protein kinase ABL1 (Homo sapiens, UniProt P00519), reported per entry below.
ENDPOINT LABEL: IC50

>>> value_measured("COc1cc2ncnc(Nc3cccc(-c4ccccc4)c3)c2cc1OC")
"> 10 µM"
>>> value_measured("c1ccc(-c2ccnc(Nc3ncnc4cc5c(cc34)OCCO5)n2)cc1")
"> 10 µM"
>>> value_measured("COc1ccc(/C=C\\c2cc(OC)c(OC)c(OC)c2)cc1O")
"> 10 µM"
>>> value_measured("c1ccc(-c2csc(Nc3ncnc4cc5c(cc34)OCCO5)n2)cc1")
"> 10 µM"
>>> value_measured("Cl.c1cc(Nc2ncnc3cc4c(cc23)OCCO4)cc(-c2ccco2)c1")
"> 10 µM"

###

Observed IC50 values for Proto-oncogene tyrosine-protein kinase Src (Homo sapiens, UniProt P12931) are listed in what follows.
ENDPOINT LABEL: IC50

>>> value_measured("Cl.c1cc(Nc2ncnc3cc4c(cc23)OCCO4)cc(-c2ccc[nH]2)c1")
"> 10 µM"
>>> value_measured("Cl.c1cc(Nc2ncnc3cc4c(cc23)OCCO4)cc(-c2cccs2)c1")
"> 10 µM"
>>> value_measured("COc1ccc(/C=C\\c2cc(OC)c(OC)c(OC)c2)cc1O [COMBRETASTATIN A4]")
"> 10 µM"

###

- TESTED TARGET: Tubulin (Bos taurus, UniProt Q6B856+Q862L2+Q862F3)
- TEST DETAILS: Inhibition of bovine brain tubulin polymerization after 20 mins by turbidimetry analysis
ENDPOINT LABEL: log10(IC50) (log10 of the value in µM)

>>> value_measured("Cl.c1ccc(-c2cccc(Nc3ncnc4cc5c(cc34)OCCO5)c2)nc1")
0.51
>>> value_measured("Cl.c1cc(Nc2ncnc3cc4c(cc23)OCCO4)cc(-c2cccs2)c1")
0.08
>>> value_measured("Cl.c1cc(Nc2ncnc3cc4c(cc23)OCCO4)cc(-c2ccc[nH]2)c1")
0.48
>>> value_measured("Cl.c1cc(Nc2ncnc3cc4c(cc23)OCCO4)cc(-c2ccco2)c1")
1.08
>>> value_measured("c1ccc(-c2cccc(Nc3ncnc4cc5c(cc34)OCO5)c2)cc1")
0.04
>>> value_measured("c1ccc(-c2cccc(Nc3ncnc4cc5c(cc34)OCCCO5)c2)cc1")
0.36
>>> value_measured("c1ccc(-c2cccc(Nc3ncnc4cc5c(cc34)OCCO5)c2)cc1")
0.60

###

- TESTED TARGET: Tubulin (Bos taurus, UniProt Q6B856+Q862L2+Q862F3)
- TEST DETAILS: Inhibition of bovine brain tubulin polymerization after 20 mins by turbidimetry analysis
# IC50 annotations
ENDPOINT LABEL: IC50

>>> value_measured("c1ccc(-c2csc(Nc3ncnc4cc5c(cc34)OCCO5)n2)cc1")
"> 20 µM"
>>> value_measured("c1ccc(-c2ccnc(Nc3ncnc4cc5c(cc34)OCCO5)n2)cc1")
"> 20 µM"
>>> value_measured("COc1cc2ncnc(Nc3cccc(-c4ccccc4)c3)c2cc1OC")
"> 20 µM"
